The reported measurements were obtained from patent US20240116985A1.

- STUDY TARGET: full-length beta-Catenin (Uniprot ID P35222) (Homo sapiens)
- Construct: 10 nM full-length beta-Catenin (Uniprot ID P35222)
- Sequence (P35222 whole entry): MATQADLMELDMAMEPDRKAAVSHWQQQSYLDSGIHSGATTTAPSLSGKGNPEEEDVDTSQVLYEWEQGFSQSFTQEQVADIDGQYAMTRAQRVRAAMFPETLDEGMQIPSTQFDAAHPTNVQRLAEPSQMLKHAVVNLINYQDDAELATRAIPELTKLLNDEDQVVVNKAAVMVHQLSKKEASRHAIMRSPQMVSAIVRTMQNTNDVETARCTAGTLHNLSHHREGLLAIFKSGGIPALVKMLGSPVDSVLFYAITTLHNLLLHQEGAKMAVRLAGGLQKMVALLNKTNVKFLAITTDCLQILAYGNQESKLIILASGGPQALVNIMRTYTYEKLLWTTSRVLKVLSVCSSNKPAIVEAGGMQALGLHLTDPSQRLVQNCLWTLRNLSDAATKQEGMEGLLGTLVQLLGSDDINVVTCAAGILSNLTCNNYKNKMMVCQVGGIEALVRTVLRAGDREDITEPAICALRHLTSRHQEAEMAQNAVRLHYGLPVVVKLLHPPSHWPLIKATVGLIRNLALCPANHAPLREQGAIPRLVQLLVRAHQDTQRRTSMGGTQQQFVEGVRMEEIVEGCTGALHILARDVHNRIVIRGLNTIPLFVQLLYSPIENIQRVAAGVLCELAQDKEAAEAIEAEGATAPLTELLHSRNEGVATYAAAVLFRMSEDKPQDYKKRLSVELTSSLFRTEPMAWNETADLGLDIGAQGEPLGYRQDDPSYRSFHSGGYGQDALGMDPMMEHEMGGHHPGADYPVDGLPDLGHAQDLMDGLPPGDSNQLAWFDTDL
- PROTOCOL NOTES: Fluorescence polarization IC50 (beta-catenin / 5FAM-TCF4 10-53 competition)
- Format: binding
- ASSAY CONTEXT: fluorescence polarization; read-out: beta-Catenin FP IC50
Entries and their measured pIC50 follow.
A value of pIC50 is the negative decimal logarithm of a concentration given in moles per litre.

Use these answered entries as a reference point.
Exam item: Tell me its pIC50 given CC(=O)N1CCC[C@]12CC=CCCCC1(CCCC=CCCCOC(=O)N3CC[C@@](C(=O)N[C@@H](Cc4ccsc4)C(=O)N[C@@H](Cc4csc5ccccc45)C(=O)N[C@@H](CC(N)=O)C(=O)N[C@@H](C)C(=O)NC(C)(C)C(=O)N[C@@H](C)C(=O)NC(C)(C)C(=O)N[C@@H](C)C(N)=O)(C3)NC(=O)[C@H](CC(C)C)NC(=O)[C@H](Cc3ccccc3)NC(=O)[C@H](C)NC(=O)[C@H](C)NC(=O)[C@H](Cc3cccc(C(=O)O)c3)NC(=O)[C@H](CC(=O)O)NC1=O)NC(=O)[C@H](CC(C)(C)C)NC(=O)[C@H](CC(=O)O)NC2=O (some centres unmarked) [I-2272] as the entry.
Marked response: 7.37

Exam item: Tell me its pIC50 given CC(=O)N1CCC[C@]12CCCCCCC1(CCCCCCCCOC(=O)N3CC[C@@](C(=O)N[C@@H](Cc4ccsc4)C(=O)N[C@@H](Cc4csc5ccccc45)C(=O)N[C@@H](Cc4ccccc4)C(N)=O)(C3)NC(=O)[C@H](CC(C)C)NC(=O)[C@H](Cc3ccccc3)NC(=O)[C@H](C)NC(=O)[C@H](CCCCNC(C)C)NC(=O)[C@H](CN(CC(=O)O)CC(F)(F)F)NC(=O)[C@H](CC(=O)O)NC1=O)NC(=O)[C@H](CC(C)(C)C)NC(=O)[C@H](CC(=O)O)NC2=O (some centres unmarked) [I-1767] as the entry.
Marked response: 6.49

Exam item: Tell me its pIC50 given CC(=O)N1CCC[C@]12CC=CCCCC1(CCCC=CCCCCCC[C@@](C)(C(=O)N[C@@H](Cc3ccsc3)C(=O)N[C@@H](Cc3csc4ccccc34)C(=O)N[C@@H](CCC(N)=O)C(N)=O)NC(=O)[C@H](CC(N)=O)NC(=O)[C@H](Cc3ccccc3)NC(=O)[C@H](C)NC(=O)[C@H](C)NC(=O)[C@H](CCC(=O)O)NC(=O)[C@H](CC(=O)O)NC1=O)NC(=O)[C@H](C)NC(=O)[C@H](CC(=O)O)NC2=O (some centres unmarked) [I-518] as the entry.
Marked response: 6.84

Exam item: Tell me its pIC50 given CC(=O)N1CCC[C@]12CC=CCCCC1(CCCC=CCCCOC(=O)N3CC[C@@](C(=O)N[C@@H](Cc4ccccc4Cl)C(=O)N[C@@H](Cc4csc5ccccc45)C(=O)N[C@@H](CC(C)C)C(N)=O)(C3)NC(=O)[C@H](CC(C)C)NC(=O)[C@H](Cc3ccccc3)NC(=O)[C@H](C)NC(=O)[C@H](C)NC(=O)[C@H](CC(=O)O)NC(=O)[C@H](CC(=O)O)NC1=O)NC(=O)[C@H](CC(C)(C)C)NC(=O)[C@H](CC(=O)O)NC2=O (some centres unmarked) [I-1416] as the entry.
Marked response: 7.24

Now turn to the next molecule.
Exam item: Tell me its pIC50 given CC(=O)N1CCC[C@]12CC=CCCCC1(CCCC=CCCCOC(=O)N3CC[C@@](C(=O)N[C@@H](Cc4ccsc4)C(=O)N[C@@H](Cc4csc5ccccc45)C(=O)N[C@@H](CCC(N)=O)C(N)=O)(C3)NC(=O)[C@H](CC(C)C)NC(=O)[C@H](Cc3ccccc3)NC(=O)[C@H](C)NC(=O)[C@H](CCCCNC(C)C)NC(=O)[C@H](CCC(N)=O)NC(=O)[C@H](CC(=O)O)NC1=O)NC(=O)[C@H](CC1CCCCC1)NC(=O)[C@H](CC(N)=O)NC2=O (some centres unmarked) [I-2446] as the entry.
Marked response: 7.03

====

Entries and their measured CHI Log D follow.
- PROTOCOL NOTES: CHI Log D procedure
- Format: physicochemical
- ASSAY CONTEXT: pH 7.4
Please state the value as a number alone, without comment.

Exam item: Tell me its CHI Log D given CC(=O)N1CCC[C@]12CC=CCCCC1(CCCC=CCCCOC(=O)N3CC[C@@](C(=O)N[C@@H](Cc4ccsc4)C(=O)N[C@@H](Cc4csc5ccccc45)C(=O)N[C@@H](CO)C(N)=O)(C3)NC(=O)[C@H](CO)NC(=O)[C@H](Cc3ccccc3)NC(=O)[C@H](C)NC(=O)[C@H](C)NC(=O)[C@H](Cc3cccc(C(=O)O)c3)NC(=O)[C@H](CC(=O)O)NC1=O)NC(=O)[C@H](CC(C)(C)C)NC(=O)[C@H](CC(=O)O)NC2=O (stereo partly shown) [I-984] as the entry.
Marked response: 1.8

Exam item: Tell me its CHI Log D given CC(=O)N[C@@H](Cc1ccccc1)C(=O)N[C@@H](CC(=O)O)C(=O)N[C@@H](C)C(=O)N[C@]1(C)CCCCCCC=CCOC(=O)N2CC[C@@](C(=O)N[C@@H](Cc3ccccc3)C(=O)N[C@@H](Cc3c[nH]c4ccccc34)C(=O)N[C@@H](CCC(N)=O)C(N)=O)(C2)NC(=O)[C@H]([C@@H](C)O)NC(=O)[C@H](Cc2ccccc2)NC(=O)[C@H](C)NC(=O)[C@H](C)NC(=O)[C@H](CC(=O)O)NC(=O)[C@H](CC(=O)O)NC1=O [I-223] as the entry.
Marked response: 1.401

Exam item: Tell me its CHI Log D given CC(=O)N[C@@H](Cc1ccccc1)C(=O)N[C@@H](CC(=O)O)C(=O)N[C@@H](C)C(=O)N[C@]1(C)CCCCCCC=CCOC(=O)N2CC[C@@](C(=O)N[C@@H](Cc3ccccc3)C(=O)N[C@@H](Cc3c[nH]c4ccccc34)C(=O)N[C@@H](CCC(N)=O)C(N)=O)(C2)NC(=O)[C@H](C(C)C)NC(=O)[C@H](Cc2ccccc2)NC(=O)[C@H](C)NC(=O)[C@H](C)NC(=O)[C@H](CCC(=O)O)NC(=O)[C@H](CC(=O)O)NC1=O [I-3] as the entry.
Marked response: 1.307

Exam item: Tell me its CHI Log D given CC(=O)N1CCC[C@]12CC=CCCCC1(CCCC=CCCCCCC[C@@](C)(C(=O)N[C@@H](Cc3ccccc3)C(=O)N[C@@H](Cc3csc4ccccc34)C(=O)N[C@@H](CCC(N)=O)C(N)=O)NC(=O)[C@H](CC(N)=O)NC(=O)[C@H](Cc3ccccc3)NC(=O)[C@H](C)NC(=O)[C@H](C)NC(=O)[C@H](CCC(=O)O)NC(=O)[C@H](CC(=O)O)NC1=O)NC(=O)[C@H](CC1CCCCC1)NC(=O)[C@H](CC(=O)O)NC2=O (stereo partly shown) [I-620] as the entry.
Marked response: 2.688

Exam item: Tell me its CHI Log D given CC(=O)N1CCC[C@]12CC=CCCCC1(CCCC=CCCCCCC[C@@](C)(C(=O)N[C@@H](Cc3ccccc3)C(=O)N[C@@H](Cc3c[nH]c4ccccc34)C(=O)NC(C)(C)C(N)=O)NC(=O)[C@H](C(C)C)NC(=O)[C@H](Cc3ccccc3)NC(=O)[C@H](C)NC(=O)[C@H](C)NC(=O)[C@H](CCC(=O)O)NC(=O)[C@H](CC(=O)O)NC1=O)NC(=O)[C@H](C)NC(=O)[C@H](CC(=O)O)NC2=O (stereo partly shown) [I-133] as the entry.
Marked response: 2.383

Exam item: Tell me its CHI Log D given CC(=O)N1CCC[C@]12CC=CCCCC1(CCCC=CCCCCCC[C@@](C)(C(=O)N[C@@H](Cc3ccccc3)C(=O)N[C@@H](Cc3csc4ccccc34)C(=O)N[C@@H](CCC(N)=O)C(N)=O)NC(=O)[C@H](CCC(N)=O)NC(=O)[C@H](Cc3cccs3)NC(=O)[C@H](C)NC(=O)[C@H](C)NC(=O)[C@H](CCC(=O)O)NC(=O)[C@H](CC(=O)O)NC1=O)NC(=O)[C@H](C)NC(=O)[C@H](CC(=O)O)NC2=O (stereo partly shown) [I-487] as the entry.
Marked response: 1.99

Further cases:
Exam item: Tell me its CHI Log D given CC(=O)N[C@@H](Cc1ccccc1)C(=O)N[C@@H](CC(=O)O)C(=O)N[C@]1(C)CCCCCCC=CCCC[C@@](C)(C(=O)N[C@@H](C)C(=O)N[C@@H](Cc2ccccc2)C(=O)N[C@@H](Cc2c[nH]c3ccccc23)C(=O)N[C@@H](CCC(N)=O)C(N)=O)NC(=O)[C@H](Cc2ccccc2)NC(=O)[C@H](C)NC(=O)[C@H](C)NC(=O)[C@H](CC(=O)O)NC(=O)[C@H](CC(=O)O)NC(=O)[C@H](C)NC1=O (single isomer, unassigned) as the entry.
Marked response: 1.37

Exam item: Tell me its CHI Log D given CC(=O)N1CCC[C@]12CC=CCCCC1(CCCC=CCCCCCC[C@@](C)(C(=O)N[C@@H](Cc3cccc(F)c3F)C(=O)N[C@@H](Cc3csc4ccccc34)C(=O)N[C@@H](CCC(N)=O)C(N)=O)NC(=O)[C@H](C(C)C)NC(=O)[C@H](Cc3ccccc3)NC(=O)[C@H](C)NC(=O)[C@H](C)NC(=O)[C@H](CCC(=O)O)NC(=O)[C@H](CC(=O)O)NC1=O)NC(=O)[C@H](C)NC(=O)[C@H](CC(=O)O)NC2=O (stereo partly shown) [I-389] as the entry.
Marked response: 2.868

Exam item: Tell me its CHI Log D given COc1ccc(C[C@@H]2NC(=O)[C@H](C)NC(=O)[C@H](C)NC(=O)[C@H](CCC(=O)O)NC(=O)[C@H](CC(=O)O)NC(=O)C3(CCCC=CCCCCCC[C@@](C)(C(=O)N[C@@H](Cc4ccccc4)C(=O)N[C@@H](Cc4c[nH]c5ccccc45)C(=O)N[C@@H](CCC(N)=O)C(N)=O)NC(=O)[C@H](C(C)C)NC2=O)CCCC=CC[C@]2(CCCN2C(C)=O)C(=O)N[C@@H](CC(=O)O)C(=O)N[C@@H](C)C(=O)N3)cc1 (stereo partly shown) as the entry.
Marked response: 2.012

Exam item: Tell me its CHI Log D given CC(=O)N1CCC[C@]12CC=CCCCC1(CCCC=CCCCCCC[C@@](C)(C(=O)N[C@@H](Cc3ccc(F)c(F)c3)C(=O)N[C@@H](Cc3c[nH]c4ccccc34)C(=O)N[C@@H](CCC(N)=O)C(N)=O)NC(=O)[C@H](C(C)C)NC(=O)[C@H](Cc3ccccc3)NC(=O)[C@H](C)NC(=O)[C@H](C)NC(=O)[C@H](CC(=O)O)NC(=O)[C@H](CC(=O)O)NC1=O)NC(=O)[C@H](C)NC(=O)[C@H](CC(=O)O)NC2=O (stereo partly shown) [I-262] as the entry.
Marked response: 2.106
